Provide the recorded kon for the entries that follow.
# System Under Test: T1, cSNK:BSA conjugate (bovine, head-to-tail cyclized; conjugated to BSA carrier)
# T1 construct: also called BSA-cSNK
# T1 sequence (P02769 25-607 limits assumed): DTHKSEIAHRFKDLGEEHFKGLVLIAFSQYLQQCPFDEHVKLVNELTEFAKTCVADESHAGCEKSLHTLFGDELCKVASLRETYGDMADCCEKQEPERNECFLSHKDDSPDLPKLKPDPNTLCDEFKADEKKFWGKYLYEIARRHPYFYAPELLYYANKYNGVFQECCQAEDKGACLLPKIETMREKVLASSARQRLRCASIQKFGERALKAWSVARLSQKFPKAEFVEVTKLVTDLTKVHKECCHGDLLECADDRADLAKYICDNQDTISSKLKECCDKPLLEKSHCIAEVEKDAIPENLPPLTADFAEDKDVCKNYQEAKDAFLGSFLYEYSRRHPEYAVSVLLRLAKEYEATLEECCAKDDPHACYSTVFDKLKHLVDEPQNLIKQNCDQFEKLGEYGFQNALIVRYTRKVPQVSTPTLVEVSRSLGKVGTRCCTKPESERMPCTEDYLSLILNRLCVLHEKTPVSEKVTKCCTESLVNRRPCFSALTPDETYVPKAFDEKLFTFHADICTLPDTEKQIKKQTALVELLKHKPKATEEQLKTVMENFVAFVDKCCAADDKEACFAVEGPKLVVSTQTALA
# Assay Notes: BLI 2:1 fit, site 2 (kon2); 6.25 nM row
The response must be a number in M⁻¹ s⁻¹ with no trailing unit.

Prompt: Which kon value belongs to rehu5E3-IgG4 (antibody, V domains shown, human IgG4/kappa; also called IgG4 rehu version) VH: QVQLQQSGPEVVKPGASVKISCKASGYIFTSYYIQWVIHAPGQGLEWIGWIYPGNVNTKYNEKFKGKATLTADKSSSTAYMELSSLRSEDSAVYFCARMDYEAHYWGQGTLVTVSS VL: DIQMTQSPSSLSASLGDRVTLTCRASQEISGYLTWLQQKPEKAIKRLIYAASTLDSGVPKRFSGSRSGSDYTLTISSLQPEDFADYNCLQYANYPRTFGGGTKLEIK ?
Response: 4.44e+06

Prompt: Which kon value belongs to hu5E3-IgG2 (antibody, V domains shown, human IgG2/kappa; also called humanized 5E3 IgG2) VH: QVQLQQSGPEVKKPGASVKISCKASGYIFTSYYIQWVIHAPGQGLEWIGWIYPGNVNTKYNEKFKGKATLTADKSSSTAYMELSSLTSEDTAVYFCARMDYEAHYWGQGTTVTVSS VL: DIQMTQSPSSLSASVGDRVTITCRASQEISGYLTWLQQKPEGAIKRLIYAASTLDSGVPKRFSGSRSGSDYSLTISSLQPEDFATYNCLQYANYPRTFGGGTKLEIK ?
Response: 5.28e+06

Prompt: Which kon value belongs to hu5E3-IgG1 (antibody, V domains shown, human IgG1/kappa; also called humanized 5E3 IgG1; IHA variant) VH: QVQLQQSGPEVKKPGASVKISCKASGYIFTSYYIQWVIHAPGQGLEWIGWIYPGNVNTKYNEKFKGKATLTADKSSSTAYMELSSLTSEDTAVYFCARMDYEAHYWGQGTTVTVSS VL: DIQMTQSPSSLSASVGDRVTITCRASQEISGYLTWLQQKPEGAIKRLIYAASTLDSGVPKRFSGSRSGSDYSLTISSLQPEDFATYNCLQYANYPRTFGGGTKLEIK ?
Response: 6.56e+06

Prompt: Which kon value belongs to murine monoclonal antibody 5E3 (antibody, V domains shown, mouse antibody of the 5E3 hybridoma; also called murine 5E3; m5E3) VH: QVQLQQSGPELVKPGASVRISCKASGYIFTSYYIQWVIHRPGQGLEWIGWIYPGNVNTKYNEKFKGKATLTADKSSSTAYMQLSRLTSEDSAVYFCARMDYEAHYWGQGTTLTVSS VL: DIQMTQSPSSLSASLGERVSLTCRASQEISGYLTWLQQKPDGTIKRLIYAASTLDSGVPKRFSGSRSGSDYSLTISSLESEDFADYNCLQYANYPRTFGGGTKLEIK ?
Response: 1.42e+07

Prompt: Which kon value belongs to hu5E3-IgG4 (antibody, V domains shown, human IgG4/kappa; also called humanized 5E3 IgG4) VH: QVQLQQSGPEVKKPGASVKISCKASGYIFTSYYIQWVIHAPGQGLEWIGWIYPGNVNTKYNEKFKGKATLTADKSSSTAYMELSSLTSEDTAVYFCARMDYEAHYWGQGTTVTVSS VL: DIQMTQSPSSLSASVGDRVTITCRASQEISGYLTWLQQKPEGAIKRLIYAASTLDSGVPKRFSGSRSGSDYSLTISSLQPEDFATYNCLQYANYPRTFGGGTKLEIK ?
Response: 7.52e+06
